Reference for the values: patent US20070128217A1

# Tested on: antibodies in sera from SARS patients (sera 1a, 1b, 2, 6, 37, 62, London, SARS-yellow, SARS-green)
# Type: binding, human
observed-property: Binding of serum SARS-yellow to looped/cyclic peptides of protein E of SARS-CoV Urbani

| construct-sequence | assay-value |
| --- | --- |
| LFLAFVVFLLVTLAI | 0.9 |
| LAFVVFLLVTLAILT | 0.4 |
| TLAILTALRLCAYCC | 0.9 |
| ALRLCAYCCNIVNVS | 0.7 |
| LLVTLAILTALRLCA | 0.3 |

----------
# System: antibodies in sera from SARS patients (sera 1a, 1b, 2, 6, 37, 62, London, SARS-yellow, SARS-green)
# Type: binding, human
The following sequences are listed with their measured Binding of serum 62 to looped/cyclic peptides of protein E of SARS-CoV Urbani values.
observed-property: Binding of serum 62 to looped/cyclic peptides of protein E of SARS-CoV Urbani

| construct-sequence | assay-value |
| --- | --- |
| VSEETGTLIVNSVLL | 0.9 |
| LAFVVFLLVTLAILT | 0.6 |
| LTALRLCAYCCNIVN | 0.7 |
| TLAILTALRLCAYCC | 0.7 |
| LFLAFVVFLLVTLAI | 0.7 |
| IVNSVLLFLAFVVFL | 0.6 |
| VFLLVTLAILTALRL | 0.5 |
| TGTLIVNSVLLFLAF | 0.6 |
| ALRLCAYCCNIVNVS | 0.8 |

----------
# reported Binding of serum 1b to looped/cyclic peptides of protein E of SARS-CoV Urbani; entries follow
# Test system: antibodies in sera from SARS patients (sera 1a, 1b, 2, 6, 37, 62, London, SARS-yellow, SARS-green)
# Assay type: binding, human
observed-property: Binding of serum 1b to looped/cyclic peptides of protein E of SARS-CoV Urbani

| construct-sequence | assay-value |
| --- | --- |
| LAILTALRLCAYCCN | 0.4 |
| FLLVTLAILTALRLC | 0.0 |
| LTALRLCAYCCNIVN | 0.4 |
| LRLCAYCCNIVNVSL | 0.4 |

----------
# Test system: antibodies in sera from SARS patients (sera 1a, 1b, 2, 6, 37, 62, London, SARS-yellow, SARS-green)
# Type: binding, human
observed-property: Binding of serum 2 to linear peptides of protein E of SARS-CoV Urbani

| construct-sequence | assay-value |
| --- | --- |
| LAILTALRLCAYCCN | 0.5 |
| LRLCAYCCNIVNVSL | 0.4 |
| ALRLCAYCCNIVNVS | 0.5 |
| LAFVVFLLVTLAILT | 0.5 |
| LTALRLCAYCCNIVN | 0.4 |

----------
# Tested on: rabbit serum obtained by immunizing a rabbit with the SARS-CoV strain Frankfurt 1
# Format: binding
# Set-up: unit not given here
Mark true (1) only for Binding of a rabbit serum to looped peptides values smaller than 0.3; exact matches and larger values are false (0).

| construct-sequence | class-assignment |
| --- | --- |
| YSFVSEETGTLIVNS | false (0) |
| TLAILTALRLCAYCC | false (0) |
| SFVSEETGTLIVNSV | true (1) |
| FLLVTLAILTALRLC | true (1) |
| FVSEETGTLIVNSVL | true (1) |
| IVNSVLLFLAFVVFL | false (0) |
| VLLFLAFVVFLLVTL | false (0) |
| LRLCAYCCNIVNVSL | true (1) |
| LLVTLAILTALRLCA | false (0) |
| LAILTALRLCAYCCN | false (0) |
| ALRLCAYCCNIVNVS | false (0) |
| LAFVVFLLVTLAILT | true (1) |
| EETGTLIVNSVLLFL | true (1) |
| TGTLIVNSVLLFLAF | true (1) |
| LTALRLCAYCCNIVN | false (0) |
| SEETGTLIVNSVLLF | true (1) |
| VSEETGTLIVNSVLL | true (1) |
| AFVVFLLVTLAILTA | true (1) |
| ILTALRLCAYCCNIV | false (0) |

----------
# Tested on: antibodies in sera from SARS patients (sera 1a, 1b, 2, 6, 37, 62, London, SARS-yellow, SARS-green)
# Assay type: binding, human
Binding of serum 1a to looped/cyclic peptides of protein E of SARS-CoV Urbani less than 0.5 is Satisfied; Binding of serum 1a to looped/cyclic peptides of protein E of SARS-CoV Urbani greater than or equal to 0.5 is Not satisfied.

| construct-sequence | class-assignment |
| --- | --- |
| LLVTLAILTALRLCA | Not satisfied |
| LVTLAILTALRLCAY | Not satisfied |
| LRLCAYCCNIVNVSL | Not satisfied |
| VFLLVTLAILTALRL | Satisfied |
| EETGTLIVNSVLLFL | Satisfied |
| YSFVSEETGTLIVNS | Not satisfied |
| LAILTALRLCAYCCN | Not satisfied |

----------
Reported Binding of serum 6 to looped/cyclic peptides of protein E of SARS-CoV Urbani by item:
# System: antibodies in sera from SARS patients (sera 1a, 1b, 2, 6, 37, 62, London, SARS-yellow, SARS-green)
# Format: binding, human
observed-property: Binding of serum 6 to looped/cyclic peptides of protein E of SARS-CoV Urbani

| construct-sequence | assay-value |
| --- | --- |
| ALRLCAYCCNIVNVS | 0.7 |
| LRLCAYCCNIVNVSL | 0.4 |
| VLLFLAFVVFLLVTL | 0.4 |
| SEETGTLIVNSVLLF | 0.5 |
| TLAILTALRLCAYCC | 0.7 |

----------
# System: antibodies in sera from SARS patients (sera 1a, 1b, 2, 6, 37, 62, London, SARS-yellow, SARS-green)
# Assay type: binding, human
observed-property: Binding of serum 37 to looped/cyclic peptides of protein E of SARS-CoV Urbani

| construct-sequence | assay-value |
| --- | --- |
| LFLAFVVFLLVTLAI | 0.6 |
| SEETGTLIVNSVLLF | 0.4 |
| SFVSEETGTLIVNSV | 0.6 |
| FVSEETGTLIVNSVL | 0.6 |
| VLLFLAFVVFLLVTL | 0.6 |
| LTALRLCAYCCNIVN | 0.7 |
| AFVVFLLVTLAILTA | 0.5 |

----------
# System: antibodies in sera from SARS patients (sera 1a, 1b, 2, 6, 37, 62, London, SARS-yellow, SARS-green)
# Assay type: binding, human
observed-property: Binding of serum 1a to linear peptides of protein E of SARS-CoV Urbani

| construct-sequence | assay-value |
| --- | --- |
| LVTLAILTALRLCAY | 0.8 |
| YSFVSEETGTLIVNS | 0.8 |
| LRLCAYCCNIVNVSL | 0.7 |
| LAILTALRLCAYCCN | 0.8 |

----------
# System: rabbit serum obtained by immunizing a rabbit with the SARS-CoV strain Frankfurt 1
# Format: binding
# Parameters: unit not given here
Where Binding of a rabbit serum to linear peptides equals or exceeds 0.5, the correct label is Criterion met; where it does not, the label is Criterion not met.

| construct-sequence | class-assignment |
| --- | --- |
| LAILTALRLCAYCCN | Criterion met |
| TLAILTALRLCAYCC | Criterion met |
| LTALRLCAYCCNIVN | Criterion met |
| ALRLCAYCCNIVNVS | Criterion met |
| ILTALRLCAYCCNIV | Criterion met |
| LVTLAILTALRLCAY | Criterion not met |
| LRLCAYCCNIVNVSL | Criterion met |
| FVSEETGTLIVNSVL | Criterion not met |
| VFLLVTLAILTALRL | Criterion not met |
| AFVVFLLVTLAILTA | Criterion met |
| FLLVTLAILTALRLC | Criterion not met |
| YSFVSEETGTLIVNS | Criterion not met |
| VSEETGTLIVNSVLL | Criterion not met |
| SEETGTLIVNSVLLF | Criterion met |

----------
# Test system: control sera (pooled serum of ten healthy LUMC hospital workers; commercial negative donor pooled serum from the Dutch bloodbank)
# Format: binding, human
# maps each entry to its Binding of Control serum LUMC to looped peptides
observed-property: Binding of Control serum LUMC to looped peptides

| construct-sequence | assay-value |
| --- | --- |
| LLVTLAILTALRLCA | 0.8 |
| SFVSEETGTLIVNSV | 0.7 |
| TGTLIVNSVLLFLAF | 0.5 |
| AFVVFLLVTLAILTA | 0.5 |
| IVNSVLLFLAFVVFL | 0.7 |
| ILTALRLCAYCCNIV | 0.8 |

----------
# Test system: antibodies in sera from SARS patients (sera 1a, 1b, 2, 6, 37, 62, London, SARS-yellow, SARS-green)
# Type: binding, human
observed-property: Binding of serum 1b to linear peptides of protein E of SARS-CoV Urbani

| construct-sequence | assay-value |
| --- | --- |
| VSEETGTLIVNSVLL | 0.5 |
| EETGTLIVNSVLLFL | 0.7 |
| IVNSVLLFLAFVVFL | 0.6 |
| AFVVFLLVTLAILTA | 0.6 |
| ALRLCAYCCNIVNVS | 0.8 |
